# procedure_summary: thallium flux activation in parental CHO cells, counter-screen for KCNQ1 potentiator project (AID 493006);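 on activation: fluorescence ratio of max minus min over baseline after K+ and Tl+ depolarization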
# measurement_parameters: parental CHO-K1 cells, FluxOR thallium flux, at 10 µM
Calls of active or inactive are those of the source.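 How the source made its calls: active means duplicate-averaged activation above buffer control mean plus 5 SD of those controls; inactive means the rest.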
A correct response names exactly one class from true (1) for active, false (0) for inactive

{"compound": "CSc1cccc(NC(=O)CN2C(=O)c3ccccc3S2(=O)=O)c1", "qualitative_label": "false (0)"}
{"compound": "CCOc1ccc(NC(=O)C2CCN(S(=O)(=O)c3cccnc3)CC2)cc1", "qualitative_label": "false (0)"}
{"compound": "Cc1cccc(CS(=O)(=O)c2ncc(CO)n2C)c1", "qualitative_label": "false (0)"}
{"compound": "S=c1[nH]nc(CSc2nc3ccccc3s2)n1C1CCCCC1", "qualitative_label": "true (1)"}
{"compound": "Cc1ccc(N=Nc2ccc(O)c3ncccc23)cc1C", "qualitative_label": "true (1)"}
{"compound": "CC(NC(=S)NC(=O)c1ccccc1Br)c1ccccc1 (stereo unspecified)", "qualitative_label": "false (0)"}

What did this assay record as the result for "S=c1[nH]nc(-c2ccco2)n1/N=C/c1ccc(Cl)c(Cl)c1" ?
true (1)

What did this assay record as the result for "COc1cc(Br)cc(/C=N/c2ncn[nH]2)c1O" ?
true (1)
